# Tested on: Glucocorticoid receptor (Homo sapiens)
Below, each entry is listed with its recorded Ki.
Your answer is read as µM, so omit the unit and give the number.

[[record]]
molecule = "C=C1C[C@H](CO)CC(C)(C)[C@@H]1Cc1cc(OC)c(Br)cc1O"
value_reported = 6.39

[[record]]
molecule = "C=C1CCC[C@H](C)[C@H]1Cc1cc(OC)c(Br)cc1O"
value_reported = 3.7


Given the molecule C=C1CCC(C)(C)C1Cc1cc(OC)c(Br)cc1O (stereo unspecified) , what is its reported Ki?
4.53

// next record C=C1C=C(C)CC(C)(C)C1Cc1ccc([N+](=O)[O-])c(C)c1 (stereo unspecified)
6.81

Entry to check: C=C1C=C(C)CC(C)(C)C1(O)Cc1ccc([N+](=O)[O-])cc1 (stereo unspecified)
8.51

Likewise for C=C1C=CCC(C)(C)C1Cc1cc(OC)c(Br)cc1O (stereo unspecified) ?
2.78

###

# Tested on: Androgen receptor (Homo sapiens, UniProt P10275)
# Sequence (P10275 whole entry): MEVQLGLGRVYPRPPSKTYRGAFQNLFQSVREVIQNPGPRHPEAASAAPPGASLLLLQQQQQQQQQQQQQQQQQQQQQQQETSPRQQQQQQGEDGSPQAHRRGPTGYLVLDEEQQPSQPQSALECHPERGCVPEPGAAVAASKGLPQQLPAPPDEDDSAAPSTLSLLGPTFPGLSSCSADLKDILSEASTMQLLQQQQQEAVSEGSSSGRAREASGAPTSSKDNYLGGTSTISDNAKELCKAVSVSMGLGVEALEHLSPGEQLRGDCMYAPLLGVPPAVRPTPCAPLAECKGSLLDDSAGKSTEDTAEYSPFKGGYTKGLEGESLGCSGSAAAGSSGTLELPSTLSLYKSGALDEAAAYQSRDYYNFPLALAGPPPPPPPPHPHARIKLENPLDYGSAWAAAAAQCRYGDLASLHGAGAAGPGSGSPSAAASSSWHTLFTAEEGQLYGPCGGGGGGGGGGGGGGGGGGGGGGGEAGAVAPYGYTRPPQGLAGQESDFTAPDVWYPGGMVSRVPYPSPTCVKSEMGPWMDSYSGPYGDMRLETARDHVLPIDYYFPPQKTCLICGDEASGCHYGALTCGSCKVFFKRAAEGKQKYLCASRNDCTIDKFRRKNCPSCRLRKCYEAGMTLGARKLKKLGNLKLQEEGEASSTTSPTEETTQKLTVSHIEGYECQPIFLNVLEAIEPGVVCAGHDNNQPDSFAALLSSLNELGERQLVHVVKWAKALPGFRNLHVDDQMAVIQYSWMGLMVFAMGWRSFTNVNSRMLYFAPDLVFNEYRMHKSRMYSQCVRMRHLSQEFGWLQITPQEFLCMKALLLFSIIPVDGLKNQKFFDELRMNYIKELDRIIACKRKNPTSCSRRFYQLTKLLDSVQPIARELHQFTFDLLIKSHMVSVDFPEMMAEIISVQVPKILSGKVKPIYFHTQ
Reported pIC50 values for a set of compounds
Lab note: report pIC50 as minus log10 of the concentration in molar units, number only.

GET /values?readout=pIC50&item= C=C1CC[C@@H](Br)C(C)(C)[C@@H]1Cc1cc(OC)c(Br)cc1O
6.62

Now give it for C=C1CC[C@@H](Br)C(C)(C)[C@H]1Cc1cc(OC)c(Br)cc1O too.
6.35

Another compound: C=C1C=C(C)CC(C)(C)C1Cc1ccc([N+](=O)[O-])cc1 (centres undefined)
6.60

Here is the next compound: CN(C)c1ccc([C@H]2CC3(C)[C@@H](CC[C@]3(O)CCCO)[C@@H]3CCC4=CC(=O)CCC4=C32)cc1 (single isomer, unassigned) [ONAPRISTONE]
6.57

###

In this section, each of the molecules is paired with its reported IC50.
# Tested on: Progesterone receptor (Homo sapiens, UniProt P06401)
# Sequence (P06401 whole entry): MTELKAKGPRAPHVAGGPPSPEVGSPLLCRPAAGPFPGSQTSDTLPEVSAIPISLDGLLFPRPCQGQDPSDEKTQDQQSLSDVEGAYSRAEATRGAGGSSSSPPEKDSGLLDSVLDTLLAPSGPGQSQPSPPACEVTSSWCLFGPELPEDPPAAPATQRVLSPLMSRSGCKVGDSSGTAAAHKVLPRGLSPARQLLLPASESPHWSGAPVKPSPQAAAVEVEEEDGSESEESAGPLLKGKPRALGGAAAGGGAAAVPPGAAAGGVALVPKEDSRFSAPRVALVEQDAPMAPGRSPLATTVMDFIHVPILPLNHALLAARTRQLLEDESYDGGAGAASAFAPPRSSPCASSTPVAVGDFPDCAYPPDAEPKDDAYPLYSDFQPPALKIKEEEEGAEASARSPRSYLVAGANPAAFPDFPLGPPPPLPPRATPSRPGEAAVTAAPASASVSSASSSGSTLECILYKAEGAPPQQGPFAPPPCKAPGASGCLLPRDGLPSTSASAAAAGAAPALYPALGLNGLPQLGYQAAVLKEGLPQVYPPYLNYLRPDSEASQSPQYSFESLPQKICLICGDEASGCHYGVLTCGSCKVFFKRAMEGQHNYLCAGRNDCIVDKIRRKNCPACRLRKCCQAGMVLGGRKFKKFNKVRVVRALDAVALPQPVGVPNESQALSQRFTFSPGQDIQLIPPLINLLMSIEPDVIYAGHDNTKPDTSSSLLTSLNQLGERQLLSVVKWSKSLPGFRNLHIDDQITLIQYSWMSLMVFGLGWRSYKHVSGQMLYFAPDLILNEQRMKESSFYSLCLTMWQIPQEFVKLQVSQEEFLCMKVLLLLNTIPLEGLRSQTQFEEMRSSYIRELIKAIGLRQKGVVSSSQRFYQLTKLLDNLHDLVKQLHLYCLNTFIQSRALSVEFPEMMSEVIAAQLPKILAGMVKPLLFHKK

Below: 4 molecules and their reported IC50.
[[record]]
molecule = "C=C1C=C(C)CC(C)(C)C1Cc1ccc([N+](=O)[O-])cc1 (stereo not given)"
reported_metric = "IC50"
value_reported = "0.186 µM"

[[record]]
molecule = "C=C1CC[C@@H](Br)C(C)(C)[C@@H]1Cc1cc(OC)c(Br)cc1O"
reported_metric = "IC50"
value_reported = "3.5 µM"

[[record]]
molecule = "C=C1C[C@H](C)C[C@@H](C)[C@@H]1Cc1cc(OC)c(Br)cc1O"
reported_metric = "IC50"
value_reported = "0.35 µM"

[[record]]
molecule = "C=C1C=C(C)CC(C)(C)C1C/C=C/c1cc(OC)c(Br)cc1O (stereo not given)"
reported_metric = "IC50"
value_reported = "1.6 µM"


// switching to the query molecule
Can you look up the measured IC50 of C=C1C[C@H](CO)CC(C)(C)[C@@H]1Cc1cc(OC)c(Br)cc1O for me?
2 µM

###

# Tested on: Glucocorticoid receptor (Homo sapiens, UniProt P04150)
# Sequence (P04150 whole entry): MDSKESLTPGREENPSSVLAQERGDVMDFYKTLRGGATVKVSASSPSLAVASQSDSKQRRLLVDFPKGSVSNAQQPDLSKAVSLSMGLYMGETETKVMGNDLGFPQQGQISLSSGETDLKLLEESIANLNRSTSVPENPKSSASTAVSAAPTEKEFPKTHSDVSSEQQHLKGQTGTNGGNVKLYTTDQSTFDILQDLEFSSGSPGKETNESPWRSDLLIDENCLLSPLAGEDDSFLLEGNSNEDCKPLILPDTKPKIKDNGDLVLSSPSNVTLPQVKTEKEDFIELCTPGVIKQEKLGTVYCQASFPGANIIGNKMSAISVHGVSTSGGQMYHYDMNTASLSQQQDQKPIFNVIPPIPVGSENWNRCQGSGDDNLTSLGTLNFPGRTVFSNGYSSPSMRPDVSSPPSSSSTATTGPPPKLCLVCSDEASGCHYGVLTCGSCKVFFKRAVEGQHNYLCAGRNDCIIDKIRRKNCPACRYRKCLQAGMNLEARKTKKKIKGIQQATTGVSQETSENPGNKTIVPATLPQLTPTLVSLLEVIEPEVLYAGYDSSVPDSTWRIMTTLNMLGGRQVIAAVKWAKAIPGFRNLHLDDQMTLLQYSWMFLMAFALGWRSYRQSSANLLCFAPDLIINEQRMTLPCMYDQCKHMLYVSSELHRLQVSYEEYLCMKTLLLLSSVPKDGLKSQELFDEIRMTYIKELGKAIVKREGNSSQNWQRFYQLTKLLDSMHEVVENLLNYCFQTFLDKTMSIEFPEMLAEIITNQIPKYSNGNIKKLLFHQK
The entries below come with measured IC50 values attached.

[[record]]
compound = "CN(C)c1ccc([C@H]2CC3(C)[C@@H](CC[C@]3(O)CCCO)[C@@H]3CCC4=CC(=O)CCC4=C32)cc1 (single isomer, unassigned)"
value_reported = "27 nM"


Request the reported IC50 associated with C=C1C=C(C)CC(C)(C)C1Cc1ccc([N+](=O)[O-])cc1 (configuration not stated)
> 10000 nM

###

# Tested on: Estrogen receptor (Homo sapiens, UniProt Q92731+P03372)
Form field: IC50 (one value per entry).

IC50 for CN(C)c1ccc([C@H]2CC3(C)[C@@H](CC[C@]3(O)CCCO)[C@@H]3CCC4=CC(=O)CCC4=C32)cc1 (single isomer, unassigned) ?
> 1 µM

Another compound to look at: C=C1CC[C@@H](Br)C(C)(C)[C@H]1Cc1cc(OC)c(Br)cc1O
> 10 µM

###

Record: Ki reported on Glucocorticoid receptor (Homo sapiens, UniProt P04150).
Give just the numeric value; nM need not be written.

Illustrative cases are given below, each with its answer.
[[record]]
molecule = "C=C1CC[C@@H](Br)C(C)(C)[C@@H]1Cc1cc(OC)c(Br)cc1O"
value_reported = 2470

[[record]]
molecule = "C=C1C=C(C)CC(C)(C)C1Cc1ccc2nonc2c1 (stereo unspecified)"
value_reported = 8360

[[record]]
molecule = "C=C1C[C@H](C)CC(C)(C)[C@@H]1Cc1cc(OC)c(Br)cc1O"
value_reported = 1040

[[record]]
molecule = "C=C1C[C@H](C)C[C@@H](C)[C@@H]1Cc1cc(OC)c(Br)cc1O"
value_reported = 1660

[[record]]
molecule = "C=C1CCCC(C)(C)[C@H]1Cc1cc(OC)c(Br)cc1O"
value_reported = 1770


// moving on: another record for Ki
Which value of Ki has been reported for COc1cc(CC2C(C)(C)CC(C)=CC23CC3)c(OC(C)=O)cc1Br (stereo unspecified) in the records?
2570

###

Quick list: pIC50 per entry.
# Tested on: Progesterone receptor (Homo sapiens, UniProt P06401)
// pIC50 is dimensionless: -log10 of concentration (M)

Illustrative cases are given below, each with its answer.
[[record]]
molecule = "C=C1CCCC(C)(C)[C@@H]1Cc1cc(OC)c(Br)cc1O"
value_reported = 6.54

[[record]]
molecule = "C=C1CCC[C@@H](C)[C@@H]1Cc1cc(OC)c(Br)cc1O"
value_reported = 6.70

[[record]]
molecule = "C=C1CCCC(C)(C)[C@H]1Cc1cc(OC)c(Br)cc1O"
value_reported = 6.68


Any idea what pIC50 was measured for COc1cc(CC2C(C)(C)CC(C)=CC23CC3)c(OC(C)=O)cc1Br (stereo unspecified) ?
6.36

Continue with C=C1C=CCC(C)(C)C1Cc1cc(OC)c(Br)cc1O (stereo unspecified)
6.55

Item: C=C1[C@H](O)CCC(C)(C)[C@@H]1Cc1cc(OC)c(Br)cc1O
5.77

Attribution: ChEMBL document CHEMBL1129561
